- System: UMB1949 (TSC2-deficient)
- protocol: relative viability vs DMSO (fraction); higher = less cytotoxic
- conditions: 0.0128 nM; serum: 0.1% FBS; 72 h
metric: relative viability
Answers are plain numbers.

Give one value of relative viability per listed molecule.
1. CC[C@@]1(O)C(=O)OCc2c1cc1n(c2=O)Cc2cc3ccccc3nc2-1
2. CC(C)C[C@@H](C=O)NC(=O)[C@H](CC(C)C)NC(=O)[C@H](CC(C)C)NC(=O)OCc1ccccc1
3. CC1(C)CC(=O)c2c(C(F)(F)F)nn(-c3ccc(C(N)=O)c(N[C@H]4CC[C@H](O)CC4)c3)c2C1
4. Cc1cc(Nc2cc(N3CCN(C)CC3)nc(Sc3ccc(NC(=O)C4CC4)cc3)n2)n[nH]1

1. 0.995
2. 0.846
3. 0.771
4. 0.947

----------
Provide the reported relative viability of each item.
- System: UMB1949 (TSC2-deficient)
- protocol: relative viability vs DMSO (fraction); higher = less cytotoxic
- conditions: 0.0128 nM; serum: 0.1% FBS; 72 h
Numbers only.

{"columns": ["molecule", "relative viability"],
 "data": [
  ["CO[C@@H](C(=O)N1Cc2[nH]nc(NC(=O)c3ccc(N4CCN(C)CC4)cc3)c2C1)c1ccccc1", 0.936]
]}

State the recorded relative viability for every item in the following list.
1. CC(C)(C)c1cnc(CSc2cnc(NC(=O)C3CCNCC3)s2)o1
2. Nc1ncnc2c1c(-c1cccc(OCc3ccccc3)c1)cn2C1CC(CN2CCCC2)C1 (stereo not given)
3. CC(C)C[C@H](NC(=O)CNC(=O)c1cc(Cl)ccc1Cl)B(O)O

1: 1.14; 2: 1.02; 3: 0.999

State the recorded relative viability for this entry: c1cncc(CN2CCC(n3ncc4c(N5CCOCC5)nc(-c5ccc6[nH]ccc6c5)nc43)CC2)c1 0.882

----------
- Test system: UMB1949 (TSC2-deficient)
- protocol: relative viability vs DMSO (fraction); higher = less cytotoxic
- conditions: 200 nM; serum: 0.1% FBS; 72 h
Where a name gives a salt, the structure may show the parent alone.
With a cut-off of 0.007, any relative viability strictly below it is called y; any relative viability meeting it or above is called n.

Previously resolved entries follow.
{"columns": ["compound", "class"],
 "data": [
  ["c1cncc(CN2CCC(n3ncc4c(N5CCOCC5)nc(-c5ccc6[nH]ccc6c5)nc43)CC2)c1", "n"],
  ["Nc1ncn([C@H]2C[C@H](O)[C@@H](CO)O2)c(=O)n1", "n"],
  ["NC(=O)Nc1cc(-c2cccc(F)c2)sc1C(=O)N[C@H]1CCCNC1", "y"],
  ["CO[C@@H](C(=O)N1Cc2[nH]nc(NC(=O)c3ccc(N4CCN(C)CC4)cc3)c2C1)c1ccccc1", "n"],
  ["COC1=CC(c2cc3ccccc3[nH]2)=N/C1=C\\c1[nH]c(C)cc1C [Obatoclax Mesylate]", "n"]
]}

I wonder whether O=C(Nc1c[nH]nc1-c1nc2ccc(CN3CCOCC3)cc2[nH]1)NC1CC1 has relative viability below 0.007. Can you tell? n

I'd appreciate it if you could check whether CC(C)[C@H](C(=O)Nc1ccc(C(=O)NO)cc1)c1ccccc1 has relative viability smaller than 0.007. n

Take the compound O=C(Cc1ccc(-c2ccc(OCCN3CCOCC3)cc2)cn1)NCc1ccccc1 and say whether its relative viability is less than 0.007. y

Consider the compound CC[C@@]1(O)C(=O)OCc2c1cc1n(c2=O)Cc2cc3ccccc3nc2-1 . Is its relative viability strictly less than 0.007? y

A record lists Nc1cccc2c1C(=O)N(C1CCC(=O)NC1=O)C2=O (centres undefined) [Pomalidomide] . Is its relative viability below 0.007? n

Does this compound meet the criterion relative viability < 0.007? CO[C@H]1C[C@@H]2CC[C@@H](C)[C@@](O)(O2)C(=O)C(=O)N2CCCC[C@H]2C(=O)O[C@H]([C@H](C)C[C@@H]2CC[C@@H](O)[C@H](OC)C2)CC(=O)[C@H](C)/C=C(\C)[C@@H](O)[C@@H](OC)C(=O)[C@H](C)C[C@H](C)/C=C/C=C/C=C/1C [Rapamycin(Sirolimus)] n

Does this compound meet the criterion relative viability < 0.007? Cc1ccc([N+](=O)[O-])cc1S(=O)(=O)N(C)/N=C/c1cnc2ccc(Br)cn12 [PIK-75 Hydrochloride] y

Just wondering, is relative viability of COc1cc(Nc2ncc3c(n2)-c2ccc(Cl)cc2C(c2c(F)cccc2OC)=NC3)ccc1C(=O)O below 0.007? n

----------
- System: 621-103 (TSC2-rescued);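 note: immortalized renal angiomyolipoma cells stably carrying empty vector or TSC2, dosed in 384-well plates in DMEM, viability normalized to vehicle-treated wells within each plate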
- protocol: relative viability vs DMSO; higher = less cytotoxic
- conditions: 10 µM; serum: 10% FBS; 72 h
Counter-ions that a name gives are not always drawn.
Hi! Just check whether relative viability is below 90%. Below gives t, equal or above gives f.

{"columns": ["compound", "class"],
 "data": [
  ["Cc1c(NC(=O)OC[C@@H]2COCCN2)cn2ncnc(Nc3ccc4c(cnn4Cc4cccc(F)c4)c3)c12", "t"],
  ["COc1cc2c(cc1O)CC[C@@H]1[C@@H]2CC[C@]2(C)[C@@H](O)CC[C@@H]12", "t"],
  ["NC(=O)c1ccc(N(C(N)=O)c2c(F)cccc2F)nc1-c1ccc(F)cc1F", "f"],
  ["Cc1nc(Nc2ncc(C(=O)Nc3c(C)cccc3Cl)s2)cc(N2CCN(CCO)CC2)n1", "t"]
]}

Would you kindly look at the next entry?
Hi there! Is relative viability for CCOC(=O)[C@H](CCc1ccccc1)N[C@@H](C)C(=O)N1CCC[C@H]1C(=O)O [Enalapril Maleate] below 90%, do you know? f

----------
- Test system: 621-102 (TSC2-deficient)
- protocol: relative viability vs DMSO (fraction); higher = less cytotoxic
- conditions: 0.0128 nM; serum: 0.1% FBS; 72 h
Where a name gives a salt, the structure may show the parent alone.
metric: relative viability

Here are 6 molecules together with their reported answers.
{"columns": ["molecule", "obs value"],
 "data": [
  ["CC[C@@]1(O)C(=O)OCc2c1cc1n(c2=O)Cc2cc3c(CN(C)C)c(O)ccc3nc2-1 [Topotecan Hydrochloride]", 1.03],
  ["COc1cc(Nc2ncc3c(n2)-c2ccc(Cl)cc2C(c2c(F)cccc2OC)=NC3)ccc1C(=O)O", 0.864],
  ["CO[C@H]1C[C@@H]2CC[C@@H](C)[C@@](O)(O2)C(=O)C(=O)N2CCCC[C@H]2C(=O)O[C@H]([C@H](C)C[C@@H]2CC[C@@H](O)[C@H](OC)C2)CC(=O)[C@H](C)/C=C(\\C)[C@@H](O)[C@@H](OC)C(=O)[C@H](C)C[C@H](C)/C=C/C=C/C=C/1C [Rapamycin(Sirolimus)]", 0.506],
  ["Cn1cncc1[C@@](N)(c1ccc(Cl)cc1)c1ccc2c(c1)c(-c1cccc(Cl)c1)cc(=O)n2C", 0.693],
  ["Cn1c(Nc2ccc(C(F)(F)F)cc2)nc2cc(Oc3ccnc(-c4ncc(C(F)(F)F)[nH]4)c3)ccc21", 1.01],
  ["CC(C)c1cc(C(C)C)c(CC(=O)NS(=O)(=O)Oc2c(C(C)C)cccc2C(C)C)c(C(C)C)c1", 1.07]
]}

Attention now shifts to the item below.
Please report the recorded relative viability for CCOc1ccn(-c2ccc(F)cc2)c(=O)c1C(=O)Nc1ccc(Oc2ccnc(N)c2Cl)c(F)c1 . 1.04

----------
Provide the reported relative viability of each item.
- System: UMB1949 (TSC2-deficient);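 note: renal angiomyolipoma cell lines screened in 384-well plates, viability normalized per plate to DMSO-treated cells, each plate carrying 50 nM rapamycin and 1 µM staurosporine controls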
- protocol: relative viability vs DMSO (fraction); higher = less cytotoxic
- conditions: 8 nM; serum: 0.1% FBS; 72 h
One number for each entry.

Below are worked cases with known answers.
{"columns": ["compound", "obs value"],
 "data": [
  ["O=C(/C=C/c1ccc(CN(CCO)CCc2c[nH]c3ccccc23)cc1)NO", 0.0147],
  ["CN1CC[C@H](c2c(O)cc(O)c3c(=O)cc(-c4ccccc4Cl)oc23)[C@H](O)C1", 1.08]
]}

For each of the compounds below, note its relative viability.
1. Cc1ccc(NC(=O)c2ccc(CN3CCN(C)CC3)cc2)cc1Nc1nc(-c2cccnc2)cs1
2. CC(C)C[C@@H](C(=O)N[C@H](C(=O)OC1CCCC1)c1ccccc1)[C@H](O)C(=O)NO

1.09
0.982

Give one value of relative viability per listed compound.
1. CN(C)CC[C@H](CSc1ccccc1)Nc1ccc(S(=O)(=O)NC(=O)c2ccc(N3CCN(Cc4ccccc4-c4ccc(Cl)cc4)CC3)cc2)cc1[N+](=O)[O-]
2. CO[C@H]1C[C@@H]2CC[C@@H](C)[C@@](O)(O2)C(=O)C(=O)N2CCCC[C@H]2C(=O)O[C@H]([C@H](C)C[C@@H]2CC[C@@H](OCCO)[C@H](OC)C2)CC(=O)[C@H](C)/C=C(\C)[C@@H](O)[C@@H](OC)C(=O)[C@H](C)C[C@H](C)/C=C/C=C/C=C/1C [Everolimus(RAD001)]

1: 0.92; 2: 0.936
